Please respond with reported MIC for every item in the list.
Tested on: Klebsiella pneumoniae
Assay: Antibacterial activity against Klebsiella pneumoniae ATCC 700603 after 15 to 18 hrs under aerobic condition by modified broth microdilution method
Format: functional
Hi! Could you send only the number? It should be in µg/mL, unit omitted.

Please report MIC for the following compound: `COC(=O)[C@H](CCCNC(=N)N)NC(=O)[C@H](Cc1c[nH]c(C23CC4CC(CC(C4)C2)C3)n1)NC(=O)OC(C)(C)C`
200

Please report MIC for the following compound: `COC(=O)[C@H](Cc1c[nH]c(C2CCCCC2)n1)NC(=O)[C@@H](N)Cc1c[nH]c2ccccc12`
200

---

Please respond with reported log10 IC50 for every item in the list.
Tested on: Staphylococcus epidermidis
Experiment: Antibacterial activity against methicillin-resistant Staphylococcus epidermidis DSM 50160384
Type: functional, organism-based
Where a SMILES comes first, the peptide text is derived from it. The star is where a group is joined. Boc = CC(C)(C)OC(=O)*; NHBn = c1ccc(CN*)cc1
In our notation, the value equals log10 of IC50 in µg/mL.

Please report log10 IC50 for the following molecule: `CC(C)c1nc(C[C@H](NC(=O)[C@@H](N)Cc2c[nH]c3ccccc23)C(=O)NCc2ccccc2)c[nH]1`
1.11

Please report log10 IC50 for the following molecule: `CC(C)(C)c1nc(C[C@H](N)C(=O)N[C@@H](CCCNC(=N)N)C(=O)NCc2ccccc2)c[nH]1`
0.50

Please report log10 IC50 for the following molecule: `CC(C)(C)OC(=O)N[C@@H](Cc1c[nH]c(C2CCCCC2)n1)C(=O)N[C@@H](CCCNC(=N)N)C(=O)NCc1ccccc1`
1.26

Please report log10 IC50 for the following molecule: `COC(=O)[C@H](CCCNC(=N)N)NC(=O)[C@@H](N)Cc1c[nH]c(C2CCCCC2)n1`
0.28

Please report log10 IC50 for the following molecule: N[C@@H](Cc1c[nH]c2ccccc12)C(=O)N[C@@H](Cc1c[nH]cn1)C(=O)NCc1ccccc1 (H-Trp-His-NHBn)
1.46

Please report log10 IC50 for the following molecule: COC(=O)[C@H](CCCNC(=N)N)NC(=O)[C@H](Cc1c[nH]cn1)NC(=O)OC(C)(C)C (Boc-His-Arg-OMe)
0.71

Please report log10 IC50 for the following molecule: `N[C@@H](Cc1c[nH]c2ccccc12)C(=O)N[C@@H](Cc1c[nH]c(C2CCCCC2)n1)C(=O)NCc1ccccc1`
0.88

Please report log10 IC50 for the following molecule: `N[C@@H](Cc1c[nH]c2ccccc12)C(=O)N[C@@H](Cc1c[nH]c(C2CCC2)n1)C(=O)NCc1ccccc1`
0.93

Please report log10 IC50 for the following molecule: `COC(=O)[C@H](Cc1c[nH]c(C2CCC2)n1)NC(=O)[C@@H](N)Cc1c[nH]c2ccccc12`
1.16

Please report log10 IC50 for the following molecule: `COC(=O)[C@H](CCCNC(=N)N)NC(=O)[C@H](Cc1c[nH]c(C2CCCCC2)n1)NC(=O)OC(C)(C)C`
1.00

Please report log10 IC50 for the following molecule: `N=C(N)NCCC[C@H](NC(=O)[C@@H](N)Cc1c[nH]c(C23CC4CC(CC(C4)C2)C3)n1)C(=O)NCc1ccccc1`
0.08

src = ChEMBL document CHEMBL1154782
